Hello, the source for this data is patent US11224609B2, in case you need it.

Test system: ES-8 Ewing sarcoma cells (EWS-FLI1 Type 2)
Assay: 72 h GI50 assay in ES-8
Details: read-out: ES-8 EWS-FLI1 Type 2 GI50; 72 h growth inhibition
Readout name: GI50 (nM)
Numeric only. Scale: nM

Supply reported GI50 belonging to this molecule: COC(=O)C(Cc1c[nH]c2ccccc12)NC(=O)C(OC)C1Cc2cc3cc(OC4CC(OC5CC(O)C(O)C(C)O5)C(O)C(C)O4)c(C)c(O)c3c(O)c2C(=O)C1OC1CC(OC2CC(OC3CC(C)(O)C(O)C(C)O3)C(O)C(C)O2)C(O)C(C)O1 (stereo not shown) [MTMSA-Trp (3), Mithramycin SA-Tryptophan, reference compound]
99

Supply reported GI50 belonging to this molecule: COC(=O)C(Cc1c[nH]c2ccccc12)NC(=O)C(Cc1c[nH]c2ccccc12)NC(=O)C(OC)C1Cc2cc3cc(OC4CC(OC5CC(O)C(O)C(C)O5)C(O)C(C)O4)c(C)c(O)c3c(O)c2C(=O)C1OC1CC(OC2CC(OC3CC(C)(O)C(O)C(C)O3)C(O)C(C)O2)C(O)C(C)O1 (stereo not shown) [Analogue 61, MTMSA-Trp-Trp]
114

Supply reported GI50 belonging to this molecule: COC(=O)C(Cc1ccccc1)NC(=O)C(Cc1ccccc1)NC(=O)C(OC)C1Cc2cc3cc(OC4CC(OC5CC(O)C(O)C(C)O5)C(O)C(C)O4)c(C)c(O)c3c(O)c2C(=O)C1OC1CC(OC2CC(OC3CC(C)(O)C(O)C(C)O3)C(O)C(C)O2)C(O)C(C)O1 (stereo not shown) [Analogue 63, MTMSA-Phe-Phe]
542

Supply reported GI50 belonging to this molecule: C=CCOc1ccc2[nH]cc(CC(NC(=O)C(OC)C3Cc4cc5cc(OC6CC(OC7CC(O)C(O)C(C)O7)C(O)C(C)O6)c(C)c(O)c5c(O)c4C(=O)C3OC3CC(OC4CC(OC5CC(C)(O)C(O)C(C)O5)C(O)C(C)O4)C(O)C(C)O3)C(=O)OC)c2c1 (stereo not shown) [Analogue 51]
90
